Origin of values: patent US10112929B2

- system name: ROCK2 (Homo sapiens (Human), UniProt O75116);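 note: rho kinase enzyme reaction halted with EDTA, phospho- and non-phospho peptide separated for read-out, kinase activity inhibition derived across a dose-response series, DMSO under 2%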
- Sequence (O75116 whole entry, species assumed): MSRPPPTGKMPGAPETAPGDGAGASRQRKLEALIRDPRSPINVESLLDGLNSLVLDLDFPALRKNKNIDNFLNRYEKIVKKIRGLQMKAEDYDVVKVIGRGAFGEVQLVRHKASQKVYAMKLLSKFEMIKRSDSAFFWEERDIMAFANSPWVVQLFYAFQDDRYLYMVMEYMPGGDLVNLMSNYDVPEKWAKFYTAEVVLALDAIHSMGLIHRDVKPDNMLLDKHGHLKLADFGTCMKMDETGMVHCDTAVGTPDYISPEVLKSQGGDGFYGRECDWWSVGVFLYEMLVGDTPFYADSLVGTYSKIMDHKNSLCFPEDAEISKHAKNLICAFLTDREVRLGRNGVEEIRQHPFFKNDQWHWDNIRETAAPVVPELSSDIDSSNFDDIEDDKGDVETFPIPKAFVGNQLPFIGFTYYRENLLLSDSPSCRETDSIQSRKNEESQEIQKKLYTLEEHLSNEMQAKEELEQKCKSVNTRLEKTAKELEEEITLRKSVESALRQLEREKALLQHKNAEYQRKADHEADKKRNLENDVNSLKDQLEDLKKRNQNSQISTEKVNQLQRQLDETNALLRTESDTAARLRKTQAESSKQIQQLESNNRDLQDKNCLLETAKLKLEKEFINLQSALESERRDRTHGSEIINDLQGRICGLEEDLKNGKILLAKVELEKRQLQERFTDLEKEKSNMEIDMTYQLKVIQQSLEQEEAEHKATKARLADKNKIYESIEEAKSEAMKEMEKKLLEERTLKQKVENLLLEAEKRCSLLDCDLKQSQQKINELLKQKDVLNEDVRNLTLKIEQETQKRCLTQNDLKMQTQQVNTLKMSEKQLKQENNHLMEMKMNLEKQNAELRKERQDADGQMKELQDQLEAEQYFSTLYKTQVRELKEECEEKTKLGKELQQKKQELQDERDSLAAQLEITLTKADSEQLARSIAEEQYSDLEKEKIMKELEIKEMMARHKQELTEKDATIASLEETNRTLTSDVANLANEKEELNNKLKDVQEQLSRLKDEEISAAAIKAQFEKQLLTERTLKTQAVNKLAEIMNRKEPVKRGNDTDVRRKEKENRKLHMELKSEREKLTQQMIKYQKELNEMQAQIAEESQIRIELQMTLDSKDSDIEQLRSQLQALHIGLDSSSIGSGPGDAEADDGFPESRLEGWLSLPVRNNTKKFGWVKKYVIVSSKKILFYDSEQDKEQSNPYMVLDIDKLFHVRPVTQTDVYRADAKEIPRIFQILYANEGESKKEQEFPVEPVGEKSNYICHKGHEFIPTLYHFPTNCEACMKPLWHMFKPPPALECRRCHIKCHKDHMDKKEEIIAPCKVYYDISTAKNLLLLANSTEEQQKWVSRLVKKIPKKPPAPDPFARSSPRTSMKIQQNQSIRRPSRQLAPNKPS
- assay summary: biochemical
pIC50: −log10 of the molar value. Structures can show the parent of a compound that is named as a salt.
value kind: pIC50

Inquiry: What measured pIC50 goes with Nc1cccc(OC2CCN(c3ccc(-c4cn[nH]c4)cc3)C2=O)c1 (stereo not shown) [Example 113, TFA] ?
Reply text: 7.00 to 8.00

Inquiry: Consider the molecule COc1cc(F)cc(OC2CCN(c3ccc(-c4cn[nH]c4)c(OC)n3)C2=O)c1 (single isomer, unassigned) [Example 172] and give its measured pIC50.
Reply text: 7.00 to 8.00

Inquiry: What does the data say about its pIC50? Entry: O=C1C(NCCc2ccccc2)CCN1c1ccc(-c2cn[nH]c2)cc1 (stereo not shown) [Example 59, TFA]
Reply text: 5.66 to 7.00

Inquiry: Look at this molecule and give its reported pIC50. COc1cc(F)cc(NC2CCN(c3ccc(-c4cn[nH]c4)c(OC)n3)C2=O)c1 (single isomer, unassigned) [Example 198]
Reply text: > 8.00

Inquiry: Would you mind telling me what pIC50 value was observed for COc1cccc(C(=O)NC2CCN(c3ccc(-c4cn[nH]c4)cc3)C2=O)c1 (stereo not shown) [Example 65] ?
Reply text: 5.66 to 7.00

Inquiry: // query pIC50 value for entry COc1cccc(NC2CCN(c3cc(F)c(-c4cn[nH]c4)cc3F)C2=O)c1 (single isomer, unassigned) [Example 353]
Reply text: 7.00 to 8.00

Inquiry: May I ask what pIC50 has been recorded for COc1nc(N2CCC(N3CCOc4ccccc43)C2=O)ccc1-c1cn[nH]c1 (single isomer, unassigned) [Example 229] ?
Reply text: 7.00 to 8.00
